target or test system: UniProtKB A0ABU4C0V8
Sequence (A0ABU4C0V8 1-767): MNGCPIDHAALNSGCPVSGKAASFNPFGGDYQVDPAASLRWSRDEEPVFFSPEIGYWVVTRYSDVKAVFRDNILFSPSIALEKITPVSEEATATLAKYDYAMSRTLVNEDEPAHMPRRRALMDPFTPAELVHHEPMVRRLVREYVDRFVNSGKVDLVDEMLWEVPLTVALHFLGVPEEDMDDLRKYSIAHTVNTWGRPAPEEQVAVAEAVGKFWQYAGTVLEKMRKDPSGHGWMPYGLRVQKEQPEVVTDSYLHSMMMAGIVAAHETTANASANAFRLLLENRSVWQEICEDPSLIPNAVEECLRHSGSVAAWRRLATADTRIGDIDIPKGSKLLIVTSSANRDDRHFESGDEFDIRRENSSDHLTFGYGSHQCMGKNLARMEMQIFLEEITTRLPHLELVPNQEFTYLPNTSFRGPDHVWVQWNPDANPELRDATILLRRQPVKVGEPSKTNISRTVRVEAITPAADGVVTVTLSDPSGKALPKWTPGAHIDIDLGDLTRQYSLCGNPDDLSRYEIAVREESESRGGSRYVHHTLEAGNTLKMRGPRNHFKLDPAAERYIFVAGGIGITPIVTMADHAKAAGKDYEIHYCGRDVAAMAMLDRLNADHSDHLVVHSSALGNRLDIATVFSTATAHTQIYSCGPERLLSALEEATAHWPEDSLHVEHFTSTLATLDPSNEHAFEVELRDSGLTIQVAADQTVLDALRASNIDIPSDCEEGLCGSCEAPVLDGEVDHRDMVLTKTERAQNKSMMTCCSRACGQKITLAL
value kind: Kd (nM)

[[record]]
compound = "O=C(O)Cc1ccccc1O [2-HPA, 2‐hydroxyphenylacetic acid]"
value_kind = "Kd"
unit_symbol = "nM"
result_value = 700

[[record]]
compound = "O=C(O)CCc1ccccc1O [HPPA, 3‐(2‐hydroxyphenyl)propionic acid]"
value_kind = "Kd"
unit_symbol = "nM"
result_value = 1900

